assayed_target: Muscarinic acetylcholine receptor M1 (Homo sapiens) (UniProt P11229)
Sequence (P11229 whole entry, looked up): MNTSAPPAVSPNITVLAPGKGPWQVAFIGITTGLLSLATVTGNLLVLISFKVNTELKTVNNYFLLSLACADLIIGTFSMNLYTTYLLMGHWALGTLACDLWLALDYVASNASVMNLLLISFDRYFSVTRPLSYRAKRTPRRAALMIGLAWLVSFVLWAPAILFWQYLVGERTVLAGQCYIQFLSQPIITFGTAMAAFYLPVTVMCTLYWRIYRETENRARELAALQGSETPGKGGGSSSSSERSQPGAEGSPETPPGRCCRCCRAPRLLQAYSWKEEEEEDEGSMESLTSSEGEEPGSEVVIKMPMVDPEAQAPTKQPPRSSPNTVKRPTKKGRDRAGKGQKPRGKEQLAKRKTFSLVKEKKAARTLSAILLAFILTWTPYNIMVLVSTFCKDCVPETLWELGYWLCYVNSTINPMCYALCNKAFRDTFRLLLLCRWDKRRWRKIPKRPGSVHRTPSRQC
assay_name: Cholinergic receptor muscarinic 1 (CHRM1) small molecule antagonists, cell-based qHTS assay (AID 1963588); note: nearly all actives have a fitted effect of over 40% in size
assay_setup: CHRM1-CHO antagonist mode, calcium flux fluorescence; series mostly up to 61.5 µM
Results filed as inconclusive are left out. Active and inactive are the calls of the source. Calls come from the whole dose curve.
API: response.call in t for active, f for inactive

entry_smiles	label_value
Nc1ccc(N=Nc2ccccc2)c(N)c1	t
CC1=NN(c2cccc(S(=O)(=O)O)c2)C(=O)C1	f
CC/C(=C(/c1ccc(O)cc1)c1ccc(OCCN(C)C)cc1)c1ccccc1	t
O=C1Nc2ccc(Cl)cc2[C@@](C#CC2CC2)(C(F)(F)F)O1	f
CC(C)=CC(C)(C)C	f

Attention now shifts to the item below.
Please share the test call associated with CC[N+](CC)(CC)CCOC(=O)C(C1CCCC1)C1CCCC1 .
t

* * *

assayed_target: 5-hydroxytryptamine receptor 2A (Homo sapiens)
assay_name: 5-hydroxytryptamine receptor 2A (HTR2A) small molecule antagonists, cell-based qHTS assay (AID 1963586); note: nearly all actives have a fitted effect of over 45% in size
assay_setup: HTR2A-CHO cells, DOI-induced calcium flux, fluorescence; series mostly up to 61.5 µM
Results filed as inconclusive are left out. Calls of active or inactive are those of the source. Calls come from the whole dose curve.
API: response.call in active, inactive

Take a look at these entries with their results.
compound	label_value
C=C(C)C(=O)OCc1ccccc1	inactive
CN(C)C(C)(C)CO	inactive
C#CCN(C)CCCOc1ccc(Cl)cc1Cl	active
O=C1C=CC(=O)N1c1ccccc1	inactive

Please share the test call associated with C=CCN(CC=C)CC=C .
inactive

How about CC1=Nc2ccccc2C1(C)C ?
inactive

How about CC(C(=O)O)c1ccc(C(=O)c2cccs2)cc1 (stereo not given) ?
inactive

How about CC(C)(C)c1ccc(N)cc1 ?
inactive

How about C=C(C)C1CCC(C)(O)CC1 (stereo not given) ?
inactive

How about CN1CCN(C(=O)C2CCCCC2)CC1 ?
inactive

How about CCCCCCCCCCCCC1CO1 (stereo not given) ?
inactive

How about COC(C(=O)O)c1ccccc1 (stereo not given) ?
inactive

How about CCC(=O)C1CC(C(C)C)CC=C1C (stereo not given) ?
inactive

How about CN1CC[C@H](c2c(O)cc(O)c3c(=O)cc(-c4ccccc4Cl)oc23)[C@H](O)C1 ?
inactive

How about CNCCCCOc1ccccc1Cc1ccccc1 ?
active

How about O=C(Nc1ccccc1)OCC(CN1CCCCC1)OC(=O)Nc1ccccc1 (stereo not given) ?
inactive

How about CCCCCCCC1CCC(=O)O1 (stereo not given) ?
inactive

How about Cc1cccc(C)c1NC(=O)CN(CC(=O)O)CC(=O)O ?
inactive

How about CCCCCOC(=O)c1ccc(O)cc1 ?
active

How about C=C[C@](C)(O)CC[C@@H]1[C@@]2(C)CCCC(C)(C)[C@@H]2CC[C@@]1(C)O ?
inactive

How about O=c1[nH]c2ccc(S(=O)CCN3CCC(Cc4ccc(F)cc4)CC3)cc2o1 (stereo not given) ?
inactive

How about COc1cc2c(cc1OC)-c1cc(=Nc3c(C)cc(C)cc3C)n(C)c(=O)n1CC2 ?
inactive

* * *

assay_name: p53 small molecule agonists, cell-based qHTS assay with human liver microsomes: qHTS cell viability counter screen (AID 1963579); note: nearly all actives have a fitted effect of over 45% in size
assay_setup: p53RE-bla HCT-116 viability, ATP luminescence, 16 h, HLM; series mostly up to 66 µM
Results filed as inconclusive are left out. Active and inactive are the calls of the source. The call rests on the fitted dose curve.
API: response.call in active, inactive

Take a look at these entries with their results.
molecule	label_value
CN(C)CCOc1ccc(/C(=C(/CCCl)c2ccccc2)c2ccccc2)cc1	active
CCCOC(=O)CCCCC(=O)OCCC	inactive
CC1=C(C(=O)O)N2C(=O)[C@@H](NC(=O)[C@H](N)C3=CCC=CC3)[C@H]2SC1	inactive
C=C1C(=C/C=C2\CCC[C@]3(C)[C@@H]([C@H](C)/C=C/[C@@H](O)C4CC4)CC[C@@H]23)C[C@@H](O)C[C@@H]1O	inactive
C[C@H]1C[C@H]2[C@@H]3CCC4=CC(=O)C=C[C@]4(C)[C@@]3(Cl)[C@@H](O)C[C@]2(C)[C@@]1(O)C(=O)CO	inactive
O=Cc1cc(O)ccc1Br	inactive
CC1=NN(c2ccc(S(=O)(=O)O)cc2)C(=O)C1N=Nc1ccccc1 (stereo unspecified)	inactive
Oc1ccccc1F	inactive
COc1ccc(C(=O)/C(Br)=C\C(=O)O)cc1	active
CC(C)(C)c1ccc(-c2ccc(C(C)(C)C)cc2)cc1	inactive

Please share the test call associated with CSc1ccc(/C=C2/C(C)=C(CC(=O)O)c3cc(F)ccc32)cc1 .
inactive

This collection of values is drawn from PubChem BioAssay (Tox21).
